# method: Pharmacokinetics studies in mice
# Type: in vivo, CD-1 mice
# details: CD-1; mouse plasma; PO 5 mg/Kg
result_type: AUC(0-inf) (ng·h/mL)

>>> df
                              sample_smiles  result_type  display_unit  reported_value
0  CN(C)C/C=C/C(=O)Nc1cc2c(Nc3ccc(F)c(Cl)c3)ncnc2cc1OC[C@H]1[C@@H]2COC[C@@H]21   AUC(0-inf)       ng·h/mL            1470

###

# method: Pharmacokinetics studies in mice
# Type: in vivo, CD-1 mice
# details: CD-1; mouse plasma; PO 5 mg/Kg
result_type: MRT

>>> df
                                   compound  reported_value
0  CN(C)C/C=C/C(=O)Nc1cc2c(Nc3ccc(F)c(Cl)c3)ncnc2cc1O[C@H]1CCOC1 [afatinib, reference compound]           9.3 h
